# Test system: mouse MTX^rA leukemia transfectant harboring His27/His56 RFC cDNA
# EXPERIMENTAL DETAILS: Folate growth requirement in RFC transfectants
# Format: cell-based
# SETTINGS: Mus musculus, read-out: EC50, concentration necessary to support 50% of maximal growth of control cells
Recorded pEC50 by entry
In plain terms, pEC50 is the concentration in mol/L turned into minus its base-10 logarithm.

Bench note: what pEC50 did Nc1nc2ncc(CNc3ccc(C(=O)N[C@@H](CCC(=O)O)C(=O)O)cc3)nc2c(=O)[nH]1 show?
8.29

Please turn your attention to the following entry.
Bench note: what pEC50 did Nc1nc2c(c(=O)[nH]1)N(C=O)C(CNc1ccc(C(=O)N[C@@H](CCC(=O)O)C(=O)O)cc1)CN2 (some centres unmarked) [Leucovorin, 5-formyltetrahydrofolate] show?
9.38
